Data origin, for the record: patent US20130345204A1

Provide the reported EC50 of each item.
Target: human mGluR5 (Homo sapiens, UniProt P41594)
Sequence (P41594 21-1180 isoform P41594-2 limits assumed): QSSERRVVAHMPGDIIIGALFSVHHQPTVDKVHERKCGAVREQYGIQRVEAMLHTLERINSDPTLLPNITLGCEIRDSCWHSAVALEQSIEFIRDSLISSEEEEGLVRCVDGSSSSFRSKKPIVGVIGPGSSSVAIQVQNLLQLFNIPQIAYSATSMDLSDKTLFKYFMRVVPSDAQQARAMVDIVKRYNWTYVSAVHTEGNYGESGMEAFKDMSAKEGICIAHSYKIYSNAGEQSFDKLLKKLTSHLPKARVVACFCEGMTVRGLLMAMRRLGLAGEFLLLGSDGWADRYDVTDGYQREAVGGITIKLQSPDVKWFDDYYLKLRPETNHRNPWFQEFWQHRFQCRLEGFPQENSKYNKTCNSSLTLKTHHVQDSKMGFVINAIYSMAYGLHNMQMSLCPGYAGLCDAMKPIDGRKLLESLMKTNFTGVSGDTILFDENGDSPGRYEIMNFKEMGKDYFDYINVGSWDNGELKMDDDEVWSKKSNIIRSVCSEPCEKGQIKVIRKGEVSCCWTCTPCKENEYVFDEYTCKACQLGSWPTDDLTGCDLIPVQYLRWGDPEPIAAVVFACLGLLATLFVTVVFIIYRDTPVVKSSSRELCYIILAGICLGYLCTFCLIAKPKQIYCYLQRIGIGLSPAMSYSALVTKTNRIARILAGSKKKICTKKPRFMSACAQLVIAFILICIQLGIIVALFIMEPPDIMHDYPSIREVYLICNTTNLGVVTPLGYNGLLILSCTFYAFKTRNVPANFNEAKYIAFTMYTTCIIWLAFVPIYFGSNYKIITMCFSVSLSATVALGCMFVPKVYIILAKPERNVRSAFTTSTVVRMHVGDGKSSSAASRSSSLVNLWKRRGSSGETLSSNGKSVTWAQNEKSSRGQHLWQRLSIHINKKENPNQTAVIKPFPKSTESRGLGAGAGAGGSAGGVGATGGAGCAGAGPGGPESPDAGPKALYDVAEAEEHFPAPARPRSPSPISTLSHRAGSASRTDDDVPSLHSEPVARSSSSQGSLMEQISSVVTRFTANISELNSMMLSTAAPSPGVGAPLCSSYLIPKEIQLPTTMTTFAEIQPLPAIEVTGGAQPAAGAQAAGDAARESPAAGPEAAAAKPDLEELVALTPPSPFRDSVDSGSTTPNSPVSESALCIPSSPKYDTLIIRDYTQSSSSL
Assay: Cell-based functional Ca2+ mobilization assay (FDSS), potentiation of glutamate EC20 response
Settings: H10H cell-line; potentiation in presence of glutamate EC20
Protocol: Human mGluR5a cDNA in pCMV6-XL6 mammalian expression plasmid was purchased from OriGene Technologies, Inc. (catalogue number SC326357) and subcloned into pcDNA3.1(-). […] Calcium fluorescence measures were recorded as fold over basal fluorescence; raw data was then normalized to the maximal response to glutamate. […] For consistency purposes across the range of potencies observed, all EMax values reported in this application are calculated using the maximum average response at a single concentration. […]

// below: answered compounds
| compound | measured.value |
| --- | --- |
| O=C1c2cc(COc3ccccc3)nn2CCN1C1CCCOC1 (racemic) | ≥ 10000 nM |
| O=C1c2cc(COc3ccccc3)nn2CCCN1CC1CC1(F)F (racemic) | 389 nM |
| O=C1c2cc(COc3ccccc3)nn2CCN1C[C@@H]1CC1(F)F | 380 nM |
| O=C1c2cc(COc3cccc(F)c3)nn2CCN1C[C@H]1CC1(F)F | 158 nM |
| O=C1c2cc(COc3ccccc3)nn2CCN1C1CCOC1 (racemic) | ≥ 10000 nM |

For each entry beneath this line, provide reported EC50.
1. O=C1c2cc(COc3ccccc3)nn2CCN1C1CCCCC1
2. O=C1c2cc(COc3ccccc3)nn2CCCN1CC1CC1
3. O=C1c2cc(COc3ccccc3)nn2CCN1C1CCCC1
4. O=C1c2cc(COc3ccccc3)nn2CCN1C1COC1

145 nM
380 nM
195 nM
> 10000 nM

---

Exercise: for every item that follows, state its recorded melting point.

Illustrative cases are given below, each with its answer.
| molecule | melting point |
| --- | --- |
| O=C1c2cc(COc3ccccc3)nn2CCCN1CC1CC1(F)F (racemic) [Compound 25] | 102.2 °C |
| O=C1c2cc(COc3ccccc3)nn2CCCN1CC1CC1 [Compound 22] | 126.4 °C |
| CC1CN(CC2CC2)C(=O)c2cc(COc3ccccc3)nn2C1 (centres unmarked) [Compound 28] | 67.4 °C |
| CC1CCn2nc(COc3ccccc3)cc2C(=O)N1CC1CC1 (centres unmarked) [Compound 23] | 68.6 °C |

Shift focus to the following entry.
Briefly, melting point measured for CC1(C)CN(CC2CC2)C(=O)c2cc(COc3ccccc3)nn2C1 [Compound 24] : 96.5 °C

---

molecular target: human mGluR5 (Homo sapiens); assay: Cell-based functional Ca2+ mobilization assay (FDSS), potentiation of glutamate EC20 response; details: H10H cell-line; potentiation in presence of glutamate EC20
quantity: EC50

Examples from the recorded data:
| compound | measured.value |
| --- | --- |
| CC1(C)CN(CC2CC2)C(=O)c2cc(COc3ccccc3)nn2C1 | ≥ 10 µM |
| CC1CN(CC2CC2)C(=O)c2cc(COc3ccccc3)nn2C1 (stereo not drawn) | > 30.2 µM |
| O=C1c2cc(COc3ccccc3)nn2CCN1C1CCNCC1 | > 30.2 µM |
| O=C1c2cc(COc3ccccc3)nn2CCN1[C@H]1CCCNC1 | > 30.2 µM |
| O=C1c2cc(COc3ccccc3)nn2CCN1C1CCOCC1 | ≥ 10 µM |

Consider now this further compound.
# lookup: O=C1c2cc(COc3ccccc3)nn2CCN1[C@H]1CCNC1 on human mGluR5 (Homo sapiens), EC50 = > 30.2 µM
